# Target Entity: Polyketide synthase Pks13 (Mycobacterium tuberculosis (strain ATCC 25618 / H37Rv))
# Assay Name: Mycobacterium tuberculosis Polyketide synthase 13 Thioesterase (PKS13)
# Format: functional
# Design: scale not given: in the data most compounds retested in dose-response had high values
# Applied Conditions: 30 µM
The campaign covered roughly 67,000 compounds. About 300 (0.45%) showed an effect of 50% or more. The full list was thinned out, with strong results kept by preference.
Label T when Percent Effect < -30%; otherwise F.

INSERT INTO measurements (compound, classification) VALUES
  ('COCCNC(=O)[C@@H]1CN(c2ncccn2)C[C@H]2OCC[C@H]21', 'T'),
  ('COCCN1C(=O)[C@H]2CC[C@@H]1CN(c1ncccn1)C2', 'F'),
  ('CCCNC(=O)c1nc2c(o1)CN(C(=O)CN(C)C)C2', 'T'),
  ('Cc1cccc(CN2C[C@@H]3CN(C(=O)C4CCOC4)C[C@@H]3C2=O)c1 (stereo not given in full)', 'F'),
  ('O=C(Nc1cccnc1)[C@@H]1COC[C@H]2CN(C3CCCC3)C[C@H]21', 'F'),
  ('CC(C)(C)c1nc(CN2CCc3onc(-c4cccc(F)c4)c3C2)no1', 'F');

Data request: Record "CN(C)CC(=O)N1Cc2nc(C(=O)NCc3ccncc3)oc2C1" : is its Percent Effect strictly below -30%?
Data returned: F

Data request: Record "COCCC(=O)N1C[C@H]2CN(Cc3cccnc3)C(=O)[C@H]2C1" : is its Percent Effect strictly below -30%?
Data returned: T

Data request: Record "CNC(=O)N1C[C@H]2CC[C@@]3(N=C(c4ccccc4)NC3=O)[C@H]2C1" : is its Percent Effect strictly below -30%?
Data returned: F

----------
Measured Percent Effect by item
# Target Entity: Polyketide synthase Pks13 (Mycobacterium tuberculosis (strain ATCC 25618 / H37Rv))
# Assay Name: Mycobacterium tuberculosis Polyketide synthase 13 Thioesterase (PKS13)
# Assay type: functional
# Design: scale not given: in the data most compounds retested in dose-response had high values
# Applied Conditions: 30 µM
In all, about 67,000 compounds went through this assay and about 300 (0.45%) showed an effect of 50% or more. For the sample, strong results were picked, then their nearest neighbours and some compounds at random.
// note: answer is a bare numeric in %

INSERT INTO results (molecule, target_entity, value_type, unit_annotation, recorded_number) VALUES
  ('CC(Nc1cnn(C)c(=O)c1Cl)c1ccc(F)c(F)c1 (configuration not stated)', 'Polyketide synthase Pks13 (Mycobacterium tuberculosis (strain ATCC 25618 / H37Rv))', 'Percent Effect', '%', 78.5),
  ('c1cnn(CCCO[C@@H]2CC[C@H]3[C@H]2OCCN3CC2CC2)c1', 'Polyketide synthase Pks13 (Mycobacterium tuberculosis (strain ATCC 25618 / H37Rv))', 'Percent Effect', '%', -15.8),
  ('Cc1noc([C@@]23CCO[C@@H]2CCN(C(=O)c2ccsc2)C3)n1', 'Polyketide synthase Pks13 (Mycobacterium tuberculosis (strain ATCC 25618 / H37Rv))', 'Percent Effect', '%', -23.9),
  ('O=C(NC1CC1)[C@H]1C[C@H]2OCC[C@H]2N(Cc2cccnc2)C1', 'Polyketide synthase Pks13 (Mycobacterium tuberculosis (strain ATCC 25618 / H37Rv))', 'Percent Effect', '%', 1.16),
  ('CC(Nc1cnn(C)c(=O)c1Cl)c1ccc(F)cc1 (configuration not stated)', 'Polyketide synthase Pks13 (Mycobacterium tuberculosis (strain ATCC 25618 / H37Rv))', 'Percent Effect', '%', -8.28),
  ('Fc1cnc(N2CC[C@@H](N3CCOCC3)[C@@H]2Cc2ccccc2)nc1', 'Polyketide synthase Pks13 (Mycobacterium tuberculosis (strain ATCC 25618 / H37Rv))', 'Percent Effect', '%', -4.97);

Data request: // fetch Polyketide synthase Pks13 (Mycobacterium tuberculosis (strain ATCC 25618 / H37Rv)) Percent Effect for "O=C1[C@H]2CN(c3ncccn3)C[C@H]2CN1Cc1ccncc1"
Data returned: -2.04

Data request: // fetch Polyketide synthase Pks13 (Mycobacterium tuberculosis (strain ATCC 25618 / H37Rv)) Percent Effect for "C/C(NC(=O)c1ccccn1)=C1\C(=O)C[C@@H]2[C@H]1C2(C)C"
Data returned: 37.5

----------
# Target Entity: Polyketide synthase Pks13 (Mycobacterium tuberculosis (strain ATCC 25618 / H37Rv))
# Assay Name: Mycobacterium tuberculosis Polyketide synthase 13 Thioesterase (PKS13)
# Format: functional
# Parameters: scale not given: in the data most compounds retested in dose-response had high values
# Applied Conditions: 30 µM
Out of some 67,000 compounds screened, about 300 (0.45%) showed an effect of 50% or more. For the sample, strong results were picked, then their nearest neighbours and some compounds at random.
Value Type: Percent Effect (%)
// note: answer is a bare numeric in %

INSERT INTO results (compound, recorded_number) VALUES
  ('O=C(COC[C@H]1CC[C@H]2[C@H](CCN2c2ncccn2)O1)N1CCCC1', -9.39);

// switching to the query compound
Data request: I would be grateful if you could share the reported Percent Effect for CC(=O)N1N=C(c2ccco2)OC1C(=O)NCCc1ccc(O)cc1 (stereo unspecified) .
Data returned: 8.81

----------
Measured Percent Effect by item
# Target Entity: Polyketide synthase Pks13 (Mycobacterium tuberculosis (strain ATCC 25618 / H37Rv)) (UniProt I6X8D2)
# Sequence (I6X8D2 whole entry): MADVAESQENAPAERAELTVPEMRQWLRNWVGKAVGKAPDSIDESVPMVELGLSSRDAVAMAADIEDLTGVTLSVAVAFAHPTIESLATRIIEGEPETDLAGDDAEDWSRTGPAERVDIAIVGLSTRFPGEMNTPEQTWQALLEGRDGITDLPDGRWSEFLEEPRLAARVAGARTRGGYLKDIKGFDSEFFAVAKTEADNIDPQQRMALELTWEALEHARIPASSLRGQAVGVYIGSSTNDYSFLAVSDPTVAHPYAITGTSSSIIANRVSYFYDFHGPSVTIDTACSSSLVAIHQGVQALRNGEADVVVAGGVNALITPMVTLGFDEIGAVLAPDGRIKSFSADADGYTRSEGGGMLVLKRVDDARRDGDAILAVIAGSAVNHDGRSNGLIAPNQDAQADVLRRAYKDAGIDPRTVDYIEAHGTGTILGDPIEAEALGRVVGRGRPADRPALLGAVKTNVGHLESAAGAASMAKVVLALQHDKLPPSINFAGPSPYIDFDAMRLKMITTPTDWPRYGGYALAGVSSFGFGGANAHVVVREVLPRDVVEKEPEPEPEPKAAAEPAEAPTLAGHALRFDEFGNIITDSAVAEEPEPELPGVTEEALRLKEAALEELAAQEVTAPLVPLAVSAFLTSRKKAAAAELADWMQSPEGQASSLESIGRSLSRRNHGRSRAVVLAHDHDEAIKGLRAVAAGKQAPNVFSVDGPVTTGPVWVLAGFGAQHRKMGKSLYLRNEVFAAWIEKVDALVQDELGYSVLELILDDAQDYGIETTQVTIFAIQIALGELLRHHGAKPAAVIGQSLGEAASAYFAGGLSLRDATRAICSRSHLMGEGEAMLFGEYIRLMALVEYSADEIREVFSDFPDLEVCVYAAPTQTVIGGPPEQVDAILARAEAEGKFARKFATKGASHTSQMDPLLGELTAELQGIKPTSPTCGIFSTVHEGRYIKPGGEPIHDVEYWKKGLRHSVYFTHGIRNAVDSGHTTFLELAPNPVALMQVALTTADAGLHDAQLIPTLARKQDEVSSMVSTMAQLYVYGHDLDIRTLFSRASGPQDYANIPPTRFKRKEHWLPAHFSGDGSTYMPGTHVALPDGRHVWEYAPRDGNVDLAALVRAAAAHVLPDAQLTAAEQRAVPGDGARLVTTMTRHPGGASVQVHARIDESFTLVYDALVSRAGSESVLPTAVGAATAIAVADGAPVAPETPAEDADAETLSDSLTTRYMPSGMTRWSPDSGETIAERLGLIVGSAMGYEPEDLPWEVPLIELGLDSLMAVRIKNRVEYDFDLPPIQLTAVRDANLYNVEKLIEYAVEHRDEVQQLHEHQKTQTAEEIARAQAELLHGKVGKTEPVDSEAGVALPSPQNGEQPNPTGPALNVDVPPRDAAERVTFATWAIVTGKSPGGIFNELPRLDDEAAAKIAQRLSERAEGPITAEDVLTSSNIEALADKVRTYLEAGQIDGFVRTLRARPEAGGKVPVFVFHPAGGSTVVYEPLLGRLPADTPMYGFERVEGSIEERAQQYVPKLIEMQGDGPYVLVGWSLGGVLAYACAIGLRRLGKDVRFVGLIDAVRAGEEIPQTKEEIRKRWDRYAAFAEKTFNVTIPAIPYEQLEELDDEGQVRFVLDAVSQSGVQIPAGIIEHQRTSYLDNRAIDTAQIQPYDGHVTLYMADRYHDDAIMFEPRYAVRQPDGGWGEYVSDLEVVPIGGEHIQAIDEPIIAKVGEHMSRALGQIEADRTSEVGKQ
# Assay Name: Mycobacterium tuberculosis Polyketide synthase 13 Thioesterase (PKS13)
# Assay type: functional
# Set-up: scale not given: in the data most compounds retested in dose-response had high values
# Applied Conditions: 30 µM
About 300 (0.45%) of roughly 67,000 compounds showed an effect of 50% or more. Shown is part of a subset that was picked to be rich in strong results.
// note: answer is a bare numeric in %

Worked examples follow.
INSERT INTO assay_data (cpd_smiles, recorded_number) VALUES
  ('CO[C@H]1CCN(S(=O)(=O)N(C)C)[C@@H]2CN(Cc3cccnc3)C[C@H]12', 12.3),
  ('COc1ccc(-c2cc(C3CC3)c(C#N)c(N)n2)cc1F', -126),
  ('O=C(c1cnccn1)N1CCN2C[C@H](Oc3cccnc3)C[C@H]2C1', -12.6),
  ('Cc1c(C(=O)N2CCC2)nnn1-c1ccc2ncccc2c1', -7.58),
  ('Cc1c(C(=O)N2CCS(=O)(=O)CC2)nnn1-c1ccc2ncccc2c1', -29.1),
  ('O=C(NC1CC1)[C@@H]1CCO[C@@H]2CCN(C3CCOCC3)C[C@@H]21', -12.6);

Data request: I would be grateful if you could share the reported Percent Effect for "Cc1cccc(CO[C@@H]2CC[C@H]3[C@H]2OCCN3Cc2nccs2)n1" .
Data returned: -27.1

Data request: I would be grateful if you could share the reported Percent Effect for "Cc1ccc(N2CCO[C@H]3CN(Cc4ccc(F)cc4)C[C@H]32)nn1" .
Data returned: 4.79

Data request: I would be grateful if you could share the reported Percent Effect for "Cn1cccc1C(=O)N1C[C@H]2CC[C@@H]1CN(Cc1cscn1)C2" .
Data returned: -21.5

Data request: I would be grateful if you could share the reported Percent Effect for "O=C(NC1CCC1)[C@H]1C[C@@H]2CN(C(=O)Nc3ccc(F)cc3)C[C@H]1O2" .
Data returned: 5.75

Data request: I would be grateful if you could share the reported Percent Effect for "N#Cc1c(C2CC2)cc(-c2ccc(O)cc2)nc1N" .
Data returned: 44.4

----------
# Target Entity: Polyketide synthase Pks13 (Mycobacterium tuberculosis (strain ATCC 25618 / H37Rv)) (UniProt I6X8D2)
# Assay Name: Mycobacterium tuberculosis Polyketide synthase 13 Thioesterase (PKS13)
# Format: functional
# Parameters: scale not given: in the data most compounds retested in dose-response had high values
# Applied Conditions: 30 µM
Hit rate of the full screen: of about 67,000 compounds, about 300 (0.45%) showed an effect of 50% or more. This excerpt belongs to a sample that is enriched for strong results.
Value Type: Percent Effect (%)
// note: answer is a bare numeric in %

Worked examples follow.
INSERT INTO measurements (molecule, value_type, unit_annotation, recorded_number) VALUES
  ('COc1cccc(-c2ccnc3nc(N4CCCCC4)[nH]c(=O)c23)c1', 'Percent Effect', '%', -83.6),
  ('COc1ccccc1-c1ccnc2nc(N3CCCCC3)[nH]c(=O)c12', 'Percent Effect', '%', 71.7),
  ('O=c1[nH]c(N2CCCCC2)nc2nccc(-c3ccc4c(c3)OCO4)c12', 'Percent Effect', '%', -6.64),
  ('C[C@H](NC(=O)c1cccc(CCC(C)(C)O)c1)C(N)=O', 'Percent Effect', '%', 54),
  ('Cc1ccc(OCc2occc2C(=O)N2C[C@@H]3[C@@H](CN(C)C)[C@@H]3C2)cc1', 'Percent Effect', '%', -36.4),
  ('NC(=O)C1CCN(c2nc3nccc(-c4ccccc4)c3c(=O)[nH]2)CC1', 'Percent Effect', '%', -5.28),
  ('COc1ccc(-c2ccnc3nc(N4CCCC4)[nH]c(=O)c23)cc1OC', 'Percent Effect', '%', -15.2),
  ('CC1CN(C(=O)c2cc(=O)[nH]c3ccc(F)cc23)CCO1 (stereo not given)', 'Percent Effect', '%', 6.5);

Data request: I would be grateful if you could share the reported Percent Effect for "CC(C)[C@H](NC(=O)c1cccc(CCC(C)(C)O)c1)C(N)=O" .
Data returned: 5.12

Data request: I would be grateful if you could share the reported Percent Effect for "CC(C)(O)CCc1cccc(C(=O)N[C@@H](CO)C(N)=O)c1" .
Data returned: 10.3
